System: NCI-H358 cells
assayNotes: NCI-H358 CTG proliferation assay (120 h) (NSCLC, G12C)
Type: cell-based
testSettings: Homo sapiens, assay 1, read-out: H358 (assay 1) IC50
valueKind: IC50 (nM)

compound	testedTarget	valueKind	measurementUnit	testValue
Cc1ncsc1-c1ccc(CNC(=O)[C@@H]2C[C@@H](O)CN2C(=O)[C@@H](c2cc(OCCCCN3CCCN(c4nccc(-c5noc([C@@]6(C)CCCc7sc(N)c(C#N)c76)n5)n4)[C@@H](C)C3)no2)C(C)C)cc1 (single isomer, unassigned) [I-27]	NCI-H358 cells	IC50	nM	60.5

a: Cc1ncsc1-c1ccc(CNC(=O)[C@@H]2C[C@@H](O)CN2C(=O)[C@@H](c2cc(OCCCN3CCCN(c4nccc(-c5noc([C@@]6(C)CCCc7sc(N)c(C#N)c76)n5)n4)[C@@H](C)C3)no2)C(C)C)cc1 (single isomer, unassigned) [I-25]
b: Cc1ncsc1-c1ccc(CNC(=O)[C@@H]2C[C@@H](O)CN2C(=O)[C@@H](NC(=O)CCCCCN2CCCN(c3nccc(-c4noc([C@@]5(C)CCCc6sc(N)c(C#N)c65)n4)n3)[C@@H](C)C2)C(C)(C)C)cc1 [I-47]
c: CC(C)C(C(=O)N1C[C@H](O)C[C@H]1C(=O)NCc1ccc(Br)cc1)c1cc(OCCCCN2CCCN(c3nccc(-c4noc([C@@]5(C)CCCc6sc(N)c(C#N)c65)n4)n3)[C@@H](C)C2)no1 (some centres unmarked) [I-7]
Output the entries ranked by IC50 from maximum down to minimum. Write the labels, ordered according to the request. b, c, a
(b: 2500 nM, c: 480 nM, a: 45.6 nM)

P: Cc1ncsc1-c1ccc([C@@H](NC(=O)[C@@H]2C[C@@H](O)CN2C(=O)[C@H](C(C)C)n2cc(OCCCCN3CCCN(c4nccc(-c5noc([C@@]6(C)CCCc7sc(N)c(C#N)c76)n5)n4)[C@@H](C)C3)nn2)[C@H](O)C(C)C)cc1 (single isomer, unassigned) [I-45]
Q: Cc1cc(CNC(=O)[C@@H]2C[C@@H](O)CN2C(=O)C(c2cc(OCCCCN3CCCN(c4nccc(-c5noc([C@@]6(C)CCCc7sc(N)c(C#N)c76)n5)n4)[C@@H](C)C3)no2)C(C)C)c(F)cc1-c1scnc1C (some centres unmarked) [I-13]
Sort P and Q by IC50 descending and give the first. Which one? Tell me its label. Q
(Q: 468 nM, P: 98.6 nM)

P: Cc1ncsc1-c1ccc([C@H](C)NC(=O)[C@@H]2C[C@@H](O)CN2C(=O)C(C(C)C)n2cc(OCCCCN3CCCN(c4nccc(-c5noc([C@@]6(C)CCCc7sc(N)c(C#N)c76)n5)n4)[C@@H](C)C3)nn2)cc1 (some centres unmarked) [I-28]
Q: Cc1ncsc1-c1ccc(CNC(=O)[C@@H]2C[C@@H](O)CN2C(=O)C(c2cc(OCCCCN3CCN(c4nccc(-c5noc([C@@]6(C)CCCc7sc(N)c(C#N)c76)n5)n4)[C@@H](C)C3)no2)C(C)C)cc1 (some centres unmarked) [I-11]
R: Cc1ncsc1-c1ccc(CNC(=O)[C@@H]2C[C@@H](O)CN2C(=O)[C@H](c2cc(OCCCCN3CCCN(c4nccc(-c5noc([C@@]6(C)CCCc7sc(N)c(C#N)c76)n5)n4)[C@@H](C)C3)no2)C(C)C)cc1 (single isomer, unassigned) [I-26]
S: Cc1ncsc1-c1ccc(CNC(=O)[C@@H]2C[C@@H](O)CN2C(=O)[C@@H](NC(=O)COCCCN2CCCN(c3nccc(-c4noc([C@@]5(C)CCCc6sc(N)c(C#N)c65)n4)n3)[C@@H](C)C2)C(C)(C)C)cc1 [I-48]
T: Cc1ncsc1-c1ccc(CNC(=O)[C@@H]2C[C@@H](O)CN2C(=O)[C@H](c2cc(OCCCN3CCCN(c4nccc(-c5noc([C@@]6(C)CCCc7sc(N)c(C#N)c76)n5)n4)[C@@H](C)C3)no2)C(C)C)cc1 (single isomer, unassigned) [I-24]
I would appreciate it if you could sort these 5 compounds by IC50, starting from the smallest number. Write the labels, ordered according to the request. P, R, Q, T, S
(P: 32 nM, R: 485 nM, Q: 712 nM, T: 1070 nM, S: 3550 nM)

P: Cc1ncsc1-c1ccc(CNC(=O)[C@@H]2C[C@@H](O)CN2C(=O)C(c2cc(OCCCCCCN3CCCN(c4nccc(-c5noc([C@@]6(C)CCCc7sc(N)c(C#N)c76)n5)n4)[C@@H](C)C3)no2)C(C)C)cc1 (some centres unmarked) [I-8]
Q: Cc1ncsc1-c1ccc([C@H](CO)NC(=O)[C@@H]2C[C@@H](O)CN2C(=O)[C@H](C(C)C)n2cc(OCCCC(C)N3CCCN(c4nccc(-c5noc([C@@]6(C)CCCc7sc(N)c(C#N)c76)n5)n4)[C@@H](C)C3)nn2)cc1 (some centres unmarked) [I-30]
Which entry shows the lesser value of IC50 here, P or Q ? Which one? Tell me its label. Q

meta.source: patent US20250145608A1
